The reported numbers originate from PubChem BioAssay (NCI).

Would you mind telling me the reported TGI of each entry?
- Test system: MOLT-4 leukemia
- assay notes: NCI tumour cell line growth inhibition, 48 h

# input compound: O=P(O)(CN1CCN(CP(=O)(O)c2ccccc2)CCN(CP(=O)(O)c2ccccc2)CC1)c1ccccc1 ; wanted: its TGI > 100 µM

# input compound: COc1ccc(/C(=N\Nc2ccccn2)c2ccccn2)cc1 ; wanted: its TGI > 58.3 µM

# input compound: COc1cc(/C=C/C(=O)c2c(C)nc3ccccc3c2C)ccc1OCCCN1CCN(C(=O)c2ccco2)CC1 ; wanted: its TGI 8 µM

# input compound: N#Cc1c(O)c2ccccc2[nH]c1=O ; wanted: its TGI > 100 µM

# input compound: COC(=O)/C(=N\NC(N)=O)C(C(=O)C=C(C)C)C(=O)C(=O)Nc1ccc(Cl)c(Cl)c1 (stereo not drawn) ; wanted: its TGI > 100 µM

# input compound: CNC(=O)NS(=O)(=O)c1ccc(C)cc1 ; wanted: its TGI > 100 µM

# input compound: COc1cc2c[n+](C)c3c(c2cc1OC)Cc1cc2c(cc1-3)OCO2 ; wanted: its TGI > 100 µM

# input compound: COC(=O)C(/C(=N\NC(N)=S)C(=O)Nc1ccccc1[N+](=O)[O-])c1cnc2ccccc2n1 (stereo not drawn) ; wanted: its TGI > 100 µM

# input compound: C#Cc1cccc(NC(=O)c2ccc(NC(=O)CCl)cc2)c1 ; wanted: its TGI 40 µM

# input compound: Cc1cc(Cl)ccc1NC(=O)C(=O)C(C(=O)c1ccccc1)C1OC(=O)c2ccccc21 (stereo not drawn) ; wanted: its TGI > 100 µM

# input compound: COc1cc(/C=C2\C[C@H]3[C@@H]4CC=C5C[C@@H](OC(C)=O)CC[C@]5(C)[C@H]4CC[C@]3(C)[C@H]2OC(C)=O)ccc1OCCN1CCCC1 ; wanted: its TGI > 50 µM

# input compound: COc1ccc(/C=C2\c3cc(OC)c(OC)c(OC)c3CC[C@@H]2O)cc1F ; wanted: its TGI > 100 µM

# input compound: COc1ccc(C(=O)/C=C/c2ccc(OCC(=N)N)cc2)cc1 ; wanted: its TGI 30.9 µM

# input compound: CCCCC(=O)Nc1ccc2c(C)cc(-c3ccc(-c4cc(-c5ccc(C)cc5)cc(-c5ccc(-c6cc(C)c7ccc(NC(=O)CCCC)nc7n6)cc5)n4)cc3)nc2n1 ; wanted: its TGI > 100 µM

# input compound: COC[C@H](C)N=CN1CCc2ccccc2C1(Cc1ccccc1)Cc1ccccc1 ; wanted: its TGI 37.9 µM

# input compound: CCC[CH2][Pb]([Cl])([CH2]CCC)[CH2]CCC ; wanted: its TGI 0.731 µM

# input compound: O=[N+]([O-])c1cccc(N=Nc2c(O)ccc3ccccc23)c1 ; wanted: its TGI > 100 µM

# input compound: CC(O)[C@@]1(c2ccccc2)CC2(CCN(C)CC2)O[C@H]1C (stereo partly drawn) ; wanted: its TGI > 100 µM

# input compound: CN(C)CCNC(=O)NC[C@H]1CC[C@@H]2[C@H](O1)c1cc(C(F)(F)F)ccc1N[C@H]2c1ccccc1 ; wanted: its TGI 19.6 µM

# input compound: Cc1nccc2c3ccc(OCc4cn(-c5ccc(Cl)cc5)nn4)cc3n(CC(C)C)c12 ; wanted: its TGI 6.54 µM

# input compound: C=CCc1c(O)c(C(=O)/C=C/c2ccccc2)c(OC)c2ccoc12 ; wanted: its TGI 16.6 µM

# input compound: Cn1cnc([N+](=O)[O-])c1Sc1nccc(=O)[nH]1 ; wanted: its TGI > 100 µM

# input compound: C/C(=N\NC(=O)CC(=O)N(C(=O)c1ccc(Cl)cc1)c1ccc(C)cc1)c1ccccc1O ; wanted: its TGI > 100 µM
